# Test system: NCI-H460
# Test Description: NCI tumour cell line growth inhibition, 48 h
Structures can show the parent of a compound that is named as a salt. Active and inactive are the calls of the source. Cut-off read from the data, not from the text of the source: active = GI50 up to about 1.1 µM and inactive = higher.
Use one of these outcomes when replying: true (1) (active), false (0) (inactive)

Query: Given NC(=O)NN=C(CS)CS , state the outcome it received in this test.
Result: false (0)

Query: Given C=C1C(=O)OC2CC(C)C3C=CC(=O)C3CC12 (centres undefined) , state the outcome it received in this test.
Result: false (0)

Query: Given O=C1c2cccc3cc([N+](=O)[O-])cc(c23)C(=O)N1Nc1ccc([N+](=O)[O-])cc1[N+](=O)[O-] , state the outcome it received in this test.
Result: false (0)

Query: Given OC(c1ccccc1)(c1ccccc1)c1ccncc1 , state the outcome it received in this test.
Result: false (0)

Query: Given C/C(CC(=O)NCCc1ccccc1)=N\NC(=O)C[n+]1ccccc1 , state the outcome it received in this test.
Result: false (0)

Query: Given C1=C2C3=[N+](CCCC3)CC2Cc2sccc21 (centres undefined) , state the outcome it received in this test.
Result: false (0)

Query: Given Cc1ccc(S(=O)(=O)n2c(-c3ccccc3)c(-c3ccccc3)c3ccccc32)cc1 , state the outcome it received in this test.
Result: false (0)

Query: Given CCCN(CCC)C(=O)Cc1c2n(c3ccccc13)CCCc1ccccc1-2 , state the outcome it received in this test.
Result: false (0)

Query: Given COc1ccc(C)cc(O)c1=O , state the outcome it received in this test.
Result: false (0)

Query: Given COc1ccc2nc(C(=O)c3ccccc3)c(C)cc2c1 , state the outcome it received in this test.
Result: false (0)

Query: Given CC(=O)Oc1c2c(c(CC=C(C)C)c3c1C(=O)C1=C[C@@H]4CC5C(C)(C)OC(C/C=C(/C)C(=O)O)(C4=O)[C@@]15O3)OC(C)(CCC=C(C)C)C=C2 (some centres undefined) , state the outcome it received in this test.
Result: true (1)

Query: Given CC(=O)Nc1ccc(N2C(=O)/C(=C\c3cccc(Oc4ccccc4)c3)S(=O)(=O)C2c2ccccc2)cc1 (centres undefined) , state the outcome it received in this test.
Result: false (0)

Query: Given CCCNC(=O)Cn1c2c(c3ccccc31)CCCC2 , state the outcome it received in this test.
Result: false (0)

Query: Given CN1C/C(=C\C=C\c2ccccc2)C(=O)/C(=C/C=C/c2ccccc2)C1 , state the outcome it received in this test.
Result: false (0)

Query: Given COc1ccc(C#CC(=O)O)c(OC)c1 , state the outcome it received in this test.
Result: false (0)

Query: Given CN[C@@H](C)[C@@H](O)c1ccccc1 [PSEUDOEPHEDRINE HYDROCHLORIDE] , state the outcome it received in this test.
Result: false (0)

Query: Given CO[C@]12CCC(=O)N1C=Cc1c2[nH]c2ccccc12 , state the outcome it received in this test.
Result: false (0)

Query: Given CC(C)(C)c1c(C(C)(C)C)c(=O)c1=O , state the outcome it received in this test.
Result: false (0)

Query: Given O=C(O)C1C2C=CC(C2)C1c1ccccc1 (centres undefined) , state the outcome it received in this test.
Result: false (0)

Query: Given CN(C)CCCNC(=O)c1cc(NC(=O)CCCn2c3ccccc3c3ccccc32)cn1C , state the outcome it received in this test.
Result: false (0)

Query: Given Cc1cccc2oc3c(CC(=O)O)cccc3c(=O)c12 , state the outcome it received in this test.
Result: false (0)

Query: Given O=C1CC23CCCCCCCCCCC2(C1)CC(=O)C3 (centres undefined) , state the outcome it received in this test.
Result: false (0)

Query: Given CCOC(=O)CSc1nc(N)c2c(-c3ccccc3)c3c(nc2n1)CCCC3 , state the outcome it received in this test.
Result: false (0)

Query: Given O=C1c2c(Br)sc(Br)c2C(NC(=O)C(F)(F)F)C1O (centres undefined) , state the outcome it received in this test.
Result: false (0)

Query: Given C=CC(=O)Nc1ccc(NC(=O)C=C)c2c1C(=O)c1ccccc1C2=O , state the outcome it received in this test.
Result: false (0)

Query: Given COc1cc(/C=C2\NC(=S)C3Cc4c(OC)c(C)c(OC)c(OC)c4C2N3C)c(OC)c(C)c1OC (centres undefined) , state the outcome it received in this test.
Result: false (0)

Query: Given COc1cc2c(cc1OC)C1[C@@H](c3ccccc3)OCN1CC2 (some centres undefined) , state the outcome it received in this test.
Result: false (0)

Query: Given O=C1c2ccccc2C(=O)c2[nH]cnc21 , state the outcome it received in this test.
Result: false (0)

Query: Given CCOC(=O)C(Cc1cn(S(=O)(=O)c2ccccc2)c2ccccc12)(NC(C)=O)C(=O)OCC , state the outcome it received in this test.
Result: false (0)

###

# System: NCI-H522
# Test Description: NCI tumour cell line growth inhibition, 48 h
Calls of active or inactive are those of the source. Rule as the data show it: active = GI50 up to about 1.1 µM and inactive = higher.
Use one of these outcomes when replying: 1.0 for active, 0.0 for inactive

Query: Given S=C1OC2CCCC[C@H]2O1 (stereo partly drawn) , state the outcome it received in this test.
Result: 0.0

Query: Given CN(c1ccccc1)C1C(=O)N(c2ccccc2)C1/C=C/c1ccccc1 (stereo not drawn) , state the outcome it received in this test.
Result: 0.0

Query: Given O=c1c2cc(Br)cc(Br)c2nc(CCCl)n1CCO , state the outcome it received in this test.
Result: 0.0

Query: Given CN(C)c1ccc(C2ON=C(c3ccccc3)N2C23CC4CC(CC(C4)C2)C3)cc1 (stereo not drawn) , state the outcome it received in this test.
Result: 0.0

Query: Given CCOC(=O)C/C(N)=C(\C#N)C(=O)OCC , state the outcome it received in this test.
Result: 0.0

Query: Given O=C(C=C1SCCS1)/C=C\c1ccc(Cl)cc1 , state the outcome it received in this test.
Result: 0.0

Query: Given S=C(NCc1ccccc1)c1nc[nH]c1C(=S)NCc1ccccc1 , state the outcome it received in this test.
Result: 0.0

Query: Given CC(NC(=O)C(C)C(=O)Nc1ccc(C(F)(F)F)cc1)C(N)=O (stereo not drawn) , state the outcome it received in this test.
Result: 0.0

Query: Given Cc1cccc(C)c1NC(=S)N/C=C(\C#N)C(N)=O , state the outcome it received in this test.
Result: 0.0

Query: Given COc1ccc(-c2cc(=O)c3ccc(O)cc3o2)cc1OC , state the outcome it received in this test.
Result: 0.0

Query: Given COc1ccc(/N=c2\ssc(C(=S)Nc3ccc(OC)cc3)c2S)cc1 , state the outcome it received in this test.
Result: 0.0

Query: Given C=C1C[C@@H]2O[C@H]3[C@H]4[C@@H](C[C@@H](C)[C@@H](OC(C)=O)[C@H]42)[C@@H](C)CO[C@@]3(C)[C@H](OC(=O)CCCCCCC)C[C@H]1O , state the outcome it received in this test.
Result: 0.0

Query: Given COc1ccc2c(c1)CCN1C3=C(CCC3)C(=O)C[C@@H]21 , state the outcome it received in this test.
Result: 0.0

Query: Given O=C(/C=C/c1cccc(Oc2ccccc2)c1)NCc1ccc(C(=O)NCc2ccccc2)cc1 , state the outcome it received in this test.
Result: 0.0

Query: Given CC1=NC(C(C)C)C(=O)O1 (stereo not drawn) , state the outcome it received in this test.
Result: 0.0

Query: Given O=C1NCCS(=O)(=O)N2CCC[C@@H]12 , state the outcome it received in this test.
Result: 0.0

Query: Given Nc1n2nc(-c3ccccc3)sc2n[n+]1CC(=O)c1ccccc1 , state the outcome it received in this test.
Result: 0.0

Query: Given C1=Cc2nc1c(-c1ccncc1)c1ccc([n-]1)c(-c1ccncc1)c1nc(c(-c3ccncc3)c3ccc([n-]3)c2-c2ccncc2)C=C1.[Zn+2] , state the outcome it received in this test.
Result: 0.0

Query: Given CN1C/C(=C\C=C\c2ccccc2)C(=O)/C(=C/C=C/c2ccccc2)C1 , state the outcome it received in this test.
Result: 0.0

Query: Given Nc1ccccc1C(=O)NC(=O)Nc1ccc(Oc2ncc(Br)cn2)c(Cl)c1 , state the outcome it received in this test.
Result: 1.0

Query: Given Cc1ccc(NCC(=O)N2CC(=O)Nc3ccccc32)c(C)c1 , state the outcome it received in this test.
Result: 0.0

Query: Given COc1cc(/C=C2/SC(c3ccccc3)N(Cc3ccccc3)C2=O)cc(OC)c1OC (stereo not drawn) , state the outcome it received in this test.
Result: 0.0

Query: Given CNC(=O)CN(CC(N)=O)C(=O)NC , state the outcome it received in this test.
Result: 0.0

Query: Given Cc1ccc(S(N)(=O)=O)cc1 [P-TOLUENESULFONAMIDE] , state the outcome it received in this test.
Result: 0.0

Query: Given COc1ccc2nc3cc(Cl)ccc3c(NCCCN(C)CCCNc3ccc4ncn5c6ccccc6c(=O)c3c45)c2c1 , state the outcome it received in this test.
Result: 1.0

Query: Given Cc1cc(O)c2c(c1O)C(=O)c1cccc(O)c1C2=O [ISLANDICIN] , state the outcome it received in this test.
Result: 0.0

Query: Given O=C(CC1(O)C(=O)Nc2c(Cl)cc(Cl)cc21)c1cccc2ccccc12 (stereo not drawn) , state the outcome it received in this test.
Result: 0.0

Query: Given c1ccc(-c2nc(-c3ccccc3)c(-c3ccccc3)[nH]2)cc1 , state the outcome it received in this test.
Result: 0.0

Query: Given O=C1c2c(Br)sc(Br)c2C(NC(=O)C(F)(F)F)C1O (stereo not drawn) , state the outcome it received in this test.
Result: 0.0

Query: Given O=C(O)C(Sc1ccc(Cl)cc1)Sc1ccc(Cl)cc1 , state the outcome it received in this test.
Result: 0.0

Query: Given C=C1C(=O)O[C@@H]2[C@H]1C[C@@H](O)[C@H](C)[C@@](O)(C(=O)/C=C/C)[C@H]2OC(=O)C(C)CC (stereo partly drawn) , state the outcome it received in this test.
Result: 0.0

Query: Given C[C@]12C=CC(=O)C=C1CC[C@@H]1[C@@H]2CC[C@]2(C)OC(=O)CC[C@@H]12 [TESTOLACTONE] , state the outcome it received in this test.
Result: 0.0

Query: Given CCCCCC(=O)NC(=S)Nc1nnn[nH]1 , state the outcome it received in this test.
Result: 0.0
